assay: gradient 5% acetonitrile 3 min, to 50% in 2 min, to 85% in 15 min, held 3 min, 100 µL/min; conditions: column: Zorbax Extend-C18 2.1 x 50 mm; eluents: water / acetonitrile, 0.1% formic acid
Param threshold (700 s) applies to RP-LC retention time; output yes (1) when value >= threshold, no (0) when value < threshold.

Reference set, count: 7
N#CCCN1CCN(c2ccc(NC(=O)C3CCC3)c(C(=O)O)c2)CC1 | no (0)
O=C(NCc1ccc(F)cc1F)C1CCN(c2cncnc2N2CCOCC2)CC1 | no (0)
Cc1cccc(S(=O)(=O)N2CCC(c3noc(-c4ccc(F)cc4)n3)CC2)c1 | yes (1)
COC(=O)c1ccccc1NC(=O)N1CCN(c2ccc(=O)n(-c3ccccc3)n2)CC1 | yes (1)
COc1ccccc1CCC(=O)N1CCc2cc(-c3csc(C)n3)ccc21 | yes (1)
Cc1noc(C)c1CCNC(=O)c1cn2ccccc2n1 | no (0)
Fc1cccc(-c2noc(-c3cc(N4CCN(c5ccccn5)CC4)nc4ccccc34)n2)c1 | yes (1)

# evaluate next
[ask] Decide: RP-LC retention time of Cc1[nH]nc(-c2c(C)sc(C)c2S(=O)(=O)NCc2ccc(Br)cc2)c1C >= 700 s?
[reply] yes (1)

---

assay: gradient 5% acetonitrile 3 min, to 50% in 2 min, to 85% in 15 min, held 3 min, 100 µL/min; conditions: column: Zorbax Extend-C18 2.1 x 50 mm; eluents: water / acetonitrile, 0.1% formic acid
Record form. Attribute: RP-LC retention time. Fill in for each entry.

Give one value of RP-LC retention time per listed molecule.
1. COc1ccc(-c2csc3c(=O)n(Cc4cccc(F)c4)cnc23)cc1
2. O=C(c1ccco1)N1CCc2c([nH]c3ccccc23)C1c1ccc(Cl)cc1 (centres undefined)
3. COc1ccc(CC2C(=O)Nc3ccc(Cl)cc32)cc1 (centres undefined)
4. CCOC(=O)c1c(S(=O)(=O)N2CCC(C(=O)NCCc3ccccc3)CC2)c(C)n(C)c1C
5. O=C(c1cn2ccccc2n1)N1CCN(c2ccc(Cl)cc2)CC1
6. Cc1cccc(NC(=O)Cn2c(=O)n(-c3ccc(F)cc3)c3ncccc32)c1
7. CC(C)C(=O)N1CCC(N2C[C@H](O)C[C@H]2C(=O)NC2CCCCC2)CC1
8. Cc1cccc(-c2noc(Cn3c(=O)n(C(C)C)c(=O)c4ccccc43)n2)c1

[reply]
1: 1050 s; 2: 1170 s; 3: 888 s; 4: 826 s; 5: 709 s; 6: 876 s; 7: 603 s; 8: 1170 s

[ask] Answer with reported RP-LC retention time of CCC(c1cccs1)N1C(=O)[C@H]2CN(S(=O)(=O)Cc3ccccc3)C[C@H]2C1=O (some centres undefined)
[reply] 964 s

---

experiment: gradient 5% acetonitrile 3 min, to 50% in 2 min, to 85% in 15 min, held 3 min, 100 µL/min; details: column: Zorbax Extend-C18 2.1 x 50 mm; eluents: water / acetonitrile, 0.1% formic acid
Simple rule here: RP-LC retention time less than 900 s is condition met, otherwise condition not met.

Reference set, count: 3
O=c1c2sccc2n(Cc2nc(-c3ccccc3Cl)no2)c(=O)n1Cc1ccc(F)cc1 | condition not met
Cc1cc(C)c(NC(=O)Cn2nc3n(c2=O)CCCC3)c(C)c1 | condition met
CCOC(=O)c1sc(NC(=O)CCCC(=O)O)nc1-c1ccccc1 | condition met

[ask] Bench note: check whether COc1ccc(Cl)cc1NC(=O)N1CCC(C(=O)Nc2cc(C)on2)CC1 shows RP-LC retention time below 900 s
[reply] condition met

[ask] Bench note: check whether CCS(=O)(=O)Nc1ccc(C2(C(=O)NCc3cc(F)cc(F)c3)CCCCC2)cc1 shows RP-LC retention time below 900 s
[reply] condition not met

[ask] Bench note: check whether O=C(NCCc1ccccc1)N1CCCC(Cn2c(C3CC3)nc3cccnc32)C1 (centres undefined) shows RP-LC retention time below 900 s
[reply] condition met

[ask] Bench note: check whether COc1ccc(F)cc1S(=O)(=O)N1C[C@@H]2C[C@H]1C[C@@H]2NC(=O)c1cccs1 shows RP-LC retention time below 900 s
[reply] condition met

[ask] Bench note: check whether Cc1noc2nc(CCC(=O)NCc3ccc(Cl)cc3)nc(N3CCOCC3)c12 shows RP-LC retention time below 900 s
[reply] condition met

---

experiment: gradient 5% acetonitrile 3 min, to 50% in 2 min, to 85% in 15 min, held 3 min, 100 µL/min; settings: column: Zorbax Extend-C18 2.1 x 50 mm; eluents: water / acetonitrile, 0.1% formic acid
measure_name: RP-LC retention time
Give the figure together with its unit, number first.

CCn1ccc(-c2nc(CCS(=O)(=O)c3ccccc3)no2)n1 | 768 s

Give one value of RP-LC retention time per listed molecule.
1. CC(C)N1C(=O)C(C)(C(=O)NCc2ccccc2)Oc2cccnc21 (stereo not given)
2. CCc1ccc(Oc2nccnc2N2CCC(C(=O)N3CCN(c4ccccn4)CC3)CC2)cc1
3. CC(=O)NCC(=O)N1c2ccccc2CC1c1nc(C(C)C)no1 (stereo not given)

[reply]
1. 912 s
2. 734 s
3. 724 s

[ask] Answer with reported RP-LC retention time of CCOC(=O)c1c(C)oc2nc(C)nc(N3CCN(c4ccc(C(C)=O)cc4)CC3)c12
[reply] 642 s

---

experiment: gradient 5% acetonitrile 3 min, to 50% in 2 min, to 85% in 15 min, held 3 min, 100 µL/min; conditions: column: Zorbax Extend-C18 2.1 x 50 mm; eluents: water / acetonitrile, 0.1% formic acid
measure_name: RP-LC retention time (s)
One number for each entry, in s.

Completed entries (count: 4):
Cc1ccccc1S(=O)(=O)N1CCC(CCC(=O)NC2CCS(=O)(=O)C2)CC1 (stereo not given) | 726
CCCCCn1c(=O)c2ccccc2n(Cc2nc(-c3ccccc3OC)no2)c1=O | 1130
O=C(Cc1cccs1)NCCCN1CCOC(c2ccccc2)C1 (stereo not given) | 556
COc1cccc(-c2csc(Cc3nc(-c4cccc(Cl)c4)no3)n2)c1 | 1280

# context switch: different compound, same RP-LC retention time
[ask] Answer with reported RP-LC retention time of CCOc1ccccc1CN1CCc2nc(N3CCN(c4ncccn4)CC3)ncc2C1
[reply] 672

---

Record form. Attribute: RP-LC retention time. Fill in for each entry.
assay: gradient 5% acetonitrile 3 min, to 50% in 2 min, to 85% in 15 min, held 3 min, 100 µL/min; conditions: column: Zorbax Extend-C18 2.1 x 50 mm; eluents: water / acetonitrile, 0.1% formic acid
Answers are plain numbers, in s.

Completed entries (count: 3):
CCOc1ccc(NC(=O)C2CCN(C(=O)C3Sc4ccccc4NC3=O)CC2)cc1 (centres undefined) | 725
O=C(Nc1cccc(-c2ccc3nnc(-c4cccs4)n3n2)c1)C1CCCC1 | 792
O=C(NC1CCN(c2cc(-c3cccs3)[nH]n2)C1)c1ccccc1 (centres undefined) | 695

Give one value of RP-LC retention time per listed compound.
1. O=C(Cn1c(=O)c2cc(-c3cccs3)nn2c2ncccc21)Nc1ccc(F)cc1F
2. COCCN1C(=O)c2ccccc2C(C(=O)NC2CCCC2)C1c1cccs1 (centres undefined)
3. CC(C)OCCCNC(=O)CCC(=O)N1CC2CCCN2c2ccccc21 (centres undefined)
4. CCn1ccc(C(=O)NC2CCCN(c3cc(N(C)C)ncn3)C2)n1 (centres undefined)
5. CCOc1ccc(CNC(=O)C2CCN(S(=O)(=O)c3ccc4c(c3)NC(=O)CO4)CC2)cc1
6. Cc1noc(-c2ccnc(-n3ncc(C(=O)NC4CCCCCC4)c3C)c2)n1

[reply]
1. 872
2. 843
3. 822
4. 590
5. 880
6. 968

---

Record form. Attribute: RP-LC retention time. Fill in for each entry.
experiment: gradient 5% acetonitrile 3 min, to 50% in 2 min, to 85% in 15 min, held 3 min, 100 µL/min; settings: column: Zorbax Extend-C18 2.1 x 50 mm; eluents: water / acetonitrile, 0.1% formic acid
Give bare numbers, in s.

Completed entries (count: 4):
Cc1ccc(CNC(=O)C2CCCN(C(=O)C3Sc4ccccc4NC3=O)C2)cc1 (stereo not given) | 782
O=C(CCc1nc2ccccc2s1)N1[C@H]2CC[C@@H]1c1cnc(-c3ccc(F)cc3)nc1C2 | 960
C=CCn1c(=O)c2ccccc2n(Cc2nc(-c3cccc(C)c3)no2)c1=O | 1080
Cn1cc(CN2CCC(C(=O)NCCCc3ccccc3)CC2)c2cc(Cl)ccc21 | 753

# context switch: different compound, same RP-LC retention time
[ask] Answer with reported RP-LC retention time of Cc1ccc(CNC(=O)C2(C)CCN(C(=O)Nc3cccc(Cl)c3C)CC2)cc1
[reply] 717

---

Record form. Attribute: RP-LC retention time. Fill in for each entry.
experiment: gradient 5% acetonitrile 3 min, to 50% in 2 min, to 85% in 15 min, held 3 min, 100 µL/min; details: column: Zorbax Extend-C18 2.1 x 50 mm; eluents: water / acetonitrile, 0.1% formic acid
One number for each entry, in s.

CS(=O)(=O)N1CCC(C(=O)NCC2CCN(C(=O)Nc3ccc(F)cc3)CC2)CC1 | 622
Cc1cc(C)cc(NC(=O)c2[nH]c(C)c(S(=O)(=O)N3CCCC3)c2C)c1 | 950
O=C([C@@H]1C[C@H](F)CN1S(=O)(=O)c1ccc(F)c(F)c1)N1CCCCC1 | 780
Cc1cc2c(cc1C)N(C(=O)CCl)CC(=O)N2 | 745
CCNC(=O)C1CCCN(c2nc3ncn(CC(=O)NCc4ccc(F)cc4)c(=O)c3s2)C1 (stereo not given) | 648
CCOC(=O)N1CCN(S(=O)(=O)c2cc(N3C(=O)CCS3(=O)=O)ccc2C)CC1 | 729

Give one value of RP-LC retention time per listed compound.
1. Cc1nc(-c2cc(S(=O)(=O)N3CCC(C(=O)N4CCCCCC4)CC3)c(C)s2)no1
2. Cc1ccc(Cn2nc3ccc(S(=O)(=O)N4CCCCCC4)cn3c2=O)cc1C
3. CC1CCN(S(=O)(=O)c2ccccc2-c2nc(-c3ccccc3)no2)CC1
4. O=C(c1ccc(OCC2CCN(C(=O)c3ccoc3)CC2)cc1)N1CCOCC1
5. O=c1n(Cc2cccc(Br)c2)nc2c(S(=O)(=O)N3CCc4ccccc4C3)cccn12

[reply]
1: 919; 2: 1070; 3: 1200; 4: 697; 5: 1030
